These measurements were taken from ChEMBL document CHEMBL5356951.

Test system: Escherichia coli
METHOD NOTES: Antibacterial activity against Escherichia coli ATCC 25922 assessed as bacterial growth inhibition by broth microdilution assay
Type: functional
Positions of bridges follow the written chain, without caps; N, C: chain ends. Non-standard residues stand in square brackets, D forms with d. Residues, ends and D or L forms follow the SMILES beside them. *: point of attachment. X1 = CC[C@H](C)CCCCC(=O)*; Dab = NCC[C@H](N)C(=O)O
METRIC: MIC (µg/mL)
Report the value in µg/mL with no unit label.

Ask: Would you mind telling me what MIC value was observed for "CC(C)CCSSC[C@@H](N)C(=O)N[C@H](C(=O)N[C@H](CCN)C(=O)N[C@H]1CCNC(=O)[C@H]([C@@H](C)O)NC(=O)[C@H](CCN)NC(=O)[C@H](CCN)NC(=O)[C@H](CC(C)C)NC(=O)[C@@H](Cc2ccccc2)NC(=O)[C@H](CCN)NC1=O)[C@@H](C)O" ?
Reply: 2

Ask: Sample CC[C@H](C)CCCCC(=O)N[C@@H](CCN)C(=O)N[C@H](C(=O)N[C@@H](CCN)C(=O)N[C@H]1CCNC(=O)[C@H]([C@@H](C)O)NC(=O)[C@H](CCN)NC(=O)[C@H](CCN)NC(=O)[C@H](CC(C)C)NC(=O)[C@@H](Cc2ccccc2)NC(=O)[C@H](CCN)NC1=O)[C@@H](C)O (X1-[Dab]T[Dab][Dab][Dab][dF]L[Dab][Dab]T; lactam 4-C) — what was its MIC?
Reply: 1

Ask: Would you kindly share the measured MIC for "CC(C)CCSSC[C@@H](N)C(=O)N[C@H](C(=O)N[C@@H](CN)C(=O)N[C@H]1CCNC(=O)[C@H]([C@@H](C)O)NC(=O)[C@H](CCN)NC(=O)[C@H](CCN)NC(=O)[C@H](CC(C)C)NC(=O)[C@@H](Cc2ccccc2)NC(=O)[C@H](CCN)NC1=O)[C@@H](C)O" ?
Reply: 1

Ask: I am curious: what MIC value has been reported for "CC(C)C[C@@H]1NC(=O)[C@@H](Cc2ccccc2)NC(=O)[C@H](CCN)NC(=O)[C@@H](NC(=O)CNC(=O)[C@@H](NC(=O)[C@H](N)CSSCc2cccc(Cl)c2)[C@@H](C)O)CCNC(=O)[C@H]([C@@H](C)O)NC(=O)[C@H](CCN)NC(=O)[C@H](CCN)NC1=O" ?
Reply: 2

Ask: Name the recorded MIC for "CC(C)C[C@@H]1NC(=O)[C@@H](Cc2ccccc2)NC(=O)[C@H](CCN)NC(=O)[C@@H](NC(=O)[C@H](CN)NC(=O)[C@@H](NC(=O)[C@H](N)CSSCc2cccc(Cl)c2)[C@@H](C)O)CCNC(=O)[C@H]([C@@H](C)O)NC(=O)[C@H](CCN)NC(=O)[C@H](CCN)NC1=O" .
Reply: 2

Ask: # get_value(readout='MIC', item= "CC(C)CCSSC[C@@H](N)C(=O)N[C@H](C(=O)NCC(=O)N[C@H]1CCNC(=O)[C@H]([C@@H](C)O)NC(=O)[C@H](CCN)NC(=O)[C@H](CCN)NC(=O)[C@H](CC(C)C)NC(=O)[C@@H](Cc2ccccc2)NC(=O)[C@H](CCN)NC1=O)[C@@H](C)O" )
Reply: 2

Ask: So what's the measured MIC for this one? "CC(C)C[C@@H]1NC(=O)[C@@H](Cc2ccccc2)NC(=O)[C@H](CCN)NC(=O)[C@@H](NC(=O)[C@H](CCN)NC(=O)[C@@H](NC(=O)[C@H](N)CSSCCC2CCCCC2)[C@@H](C)O)CCNC(=O)[C@H]([C@@H](C)O)NC(=O)[C@H](CCN)NC(=O)[C@H](CCN)NC1=O"
Reply: 1

###

Give MIC for every item shown.
Tested on: Pseudomonas aeruginosa
METHOD NOTES: Antibacterial activity against Pseudomonas aeruginosa NRZ 08418 assessed as bacterial growth inhibition by broth microdilution assay
Format: functional

Ask: Requested read-out: MIC. Entry: "CC(C)CCSSC[C@@H](N)C(=O)N[C@H](C(=O)NCC(=O)N[C@H]1CCNC(=O)[C@H]([C@@H](C)O)NC(=O)[C@H](CCN)NC(=O)[C@H](CCN)NC(=O)[C@H](CC(C)C)NC(=O)[C@@H](Cc2ccccc2)NC(=O)[C@H](CCN)NC1=O)[C@@H](C)O"
Reply: 4 µg/mL

Ask: Item "CC(C)C[C@@H]1NC(=O)[C@@H](Cc2ccccc2)NC(=O)[C@H](CCN)NC(=O)[C@@H](NC(=O)[C@H](CCN)NC(=O)[C@@H](NC(=O)[C@H](N)CSSCCC2CCCCC2)[C@@H](C)O)CCNC(=O)[C@H]([C@@H](C)O)NC(=O)[C@H](CCN)NC(=O)[C@H](CCN)NC1=O" has what recorded MIC?
Reply: 4 µg/mL

Ask: Need MIC of "CC(C)CCSSC[C@@H](N)C(=O)N[C@H](C(=O)N[C@@H](CCN)C(=O)N[C@H]1CCNC(=O)[C@H]([C@@H](C)O)NC(=O)[C@H](CCN)NC(=O)[C@H](CCN)NC(=O)[C@H](CC(C)C)NC(=O)[C@@H](Cc2ccccc2)NC(=O)[C@H](CCN)NC1=O)[C@@H](C)O" , thanks.
Reply: 1 µg/mL

###

Tested on: Pseudomonas aeruginosa
METHOD NOTES: Antibacterial activity against Pseudomonas aeruginosa NRZ 08418 assessed as bacterial growth inhibition by broth microdilution assay
Format: functional
Task for the reader: assign each of the following compounds its reported MIC.
Give just the numeric value; µg/mL need not be written.

Ask: Need MIC, item "CC(C)C[C@@H]1NC(=O)[C@@H](Cc2ccccc2)NC(=O)[C@H](CCN)NC(=O)[C@@H](NC(=O)[C@@H](CCN)NC(=O)[C@@H](NC(=O)[C@H](N)CSSCCC2CCCCC2)[C@@H](C)O)CCNC(=O)[C@H]([C@@H](C)O)NC(=O)[C@H](CCN)NC(=O)[C@H](CCN)NC1=O"
Reply: 2

Ask: Which MIC value belongs to "CC(C)C[C@@H]1NC(=O)[C@@H](Cc2ccccc2)NC(=O)[C@H](CCN)NC(=O)[C@@H](NC(=O)[C@@H](CO)NC(=O)[C@@H](NC(=O)[C@H](N)CSSCc2cccc(Cl)c2)[C@@H](C)O)CCNC(=O)[C@H]([C@@H](C)O)NC(=O)[C@H](CCN)NC(=O)[C@H](CCN)NC1=O" ?
Reply: 4

###

Field: MIC. Provide a value for each of the compounds that follow.
Test system: Acinetobacter baumannii
METHOD NOTES: Antibacterial activity against Acinetobacter baumannii 2018-006 assessed as bacterial growth inhibition by broth microdilution assay
Type: functional
Entry rule: numbers only, all in µg/mL.

Ask: // lookup MIC for "CC(C)C[C@@H]1NC(=O)[C@@H](Cc2ccccc2)NC(=O)[C@H](CCN)NC(=O)[C@@H](NC(=O)CNC(=O)[C@@H](NC(=O)[C@H](N)CSSCc2cccc(Cl)c2)[C@@H](C)O)CCNC(=O)[C@H]([C@@H](C)O)NC(=O)[C@H](CCN)NC(=O)[C@H](CCN)NC1=O"
Reply: 1

Ask: For "CC(C)C[C@@H]1NC(=O)[C@@H](Cc2ccccc2)NC(=O)[C@H](CCN)NC(=O)[C@@H](NC(=O)[C@H](CN)NC(=O)[C@@H](NC(=O)[C@H](N)CSSCc2cccc(Cl)c2)[C@@H](C)O)CCNC(=O)[C@H]([C@@H](C)O)NC(=O)[C@H](CCN)NC(=O)[C@H](CCN)NC1=O" , what is its reported MIC?
Reply: 2

Ask: MIC for "CC(C)C[C@@H]1NC(=O)[C@@H](Cc2ccccc2)NC(=O)[C@H](CCN)NC(=O)[C@@H](NC(=O)[C@@H](CCN)NC(=O)[C@@H](NC(=O)[C@H](N)CSSCCC2CCCCC2)[C@@H](C)O)CCNC(=O)[C@H]([C@@H](C)O)NC(=O)[C@H](CCN)NC(=O)[C@H](CCN)NC1=O" ?
Reply: 0.5

Ask: What does the data say about its MIC? Entry: "CC(C)CCSSC[C@@H](N)C(=O)N[C@H](C(=O)N[C@H](CCN)C(=O)N[C@H]1CCNC(=O)[C@H]([C@@H](C)O)NC(=O)[C@H](CCN)NC(=O)[C@H](CCN)NC(=O)[C@H](CC(C)C)NC(=O)[C@@H](Cc2ccccc2)NC(=O)[C@H](CCN)NC1=O)[C@@H](C)O"
Reply: 0.25

Ask: Suppose we examine the compound "CC(C)C[C@@H]1NC(=O)[C@@H](Cc2ccccc2)NC(=O)[C@H](CCN)NC(=O)[C@@H](NC(=O)[C@@H](CO)NC(=O)[C@@H](NC(=O)[C@H](N)CSSCCC2CCCCC2)[C@@H](C)O)CCNC(=O)[C@H]([C@@H](C)O)NC(=O)[C@H](CCN)NC(=O)[C@H](CCN)NC1=O" ; what MIC value has been reported?
Reply: 0.5

Ask: Field request: MIC | item: "CC(C)C[C@@H]1NC(=O)[C@@H](Cc2ccccc2)NC(=O)[C@H](CCN)NC(=O)[C@@H](NC(=O)[C@H](CCN)NC(=O)[C@@H](NC(=O)[C@H](N)CSSCc2cccc(Cl)c2)[C@@H](C)O)CCNC(=O)[C@H]([C@@H](C)O)NC(=O)[C@H](CCN)NC(=O)[C@H](CCN)NC1=O"
Reply: 2

Ask: Could you tell me which MIC is on file for "CC(C)C[C@@H]1NC(=O)[C@@H](Cc2ccccc2)NC(=O)[C@H](CCN)NC(=O)[C@@H](NC(=O)[C@@H](CN)NC(=O)[C@@H](NC(=O)[C@H](N)CSSCc2cccc(Cl)c2)[C@@H](C)O)CCNC(=O)[C@H]([C@@H](C)O)NC(=O)[C@H](CCN)NC(=O)[C@H](CCN)NC1=O" ?
Reply: 0.5
